Origin of the recorded values: patent US6630488B1

- protocol_text: Cell proliferation and cytotoxicity MTT assay, IAFp2
- Assay type: cell-based
- test_settings: IAFp2 skin fibroblasts, read-out: Cell proliferation and cytotoxicity IC50, IAFp2 Skin Fibroblast
Where a name gives a salt, the structure may show the parent alone.
endpoint: IC50 at 72 h (µM)

>  <compound>
Cl.N=C(N)NCc1ccc2cc(C(=O)NC[C@H](NS(=O)(=O)c3ccccc3)C(=O)O)cc(=O)n2c1 [Compound XXVII, Hydrochloride]

>  <unit_descriptor>
µM

>  <value_modifier>
>

>  <observed_measurement>
100

$$$$
>  <compound>
N=C(N)NCC1CCc2cc(C(=O)NCC(NS(=O)(=O)c3ccccc3)C(=O)O)cc(=O)n2C1 (stereo not shown)

>  <unit_descriptor>
µM

>  <value_modifier>
=

>  <observed_measurement>
23

$$$$
>  <compound>
N=C(N)NCCOc1ccc2cc(C(=O)NC[C@H](NS(=O)(=O)c3ccccc3)C(=O)O)cc(=O)n2c1 [Compound XX, Hydrochloride]

>  <unit_descriptor>
µM

>  <value_modifier>
=

>  <observed_measurement>
21

$$$$
>  <compound>
N=C(N)NCCCOc1ccc2cc(C(=O)NC[C@H](NS(=O)(=O)c3ccccc3)C(=O)O)cc(=O)n2c1 [Compound XV, Hydrochloride]

>  <unit_descriptor>
µM

>  <value_modifier>
=

>  <observed_measurement>
17

$$$$

====

- subject_of_test: α5β1 (Homo sapiens, UniProt P05556+P08648)
- Construct: Cell Line; K562 transfected αvβ3; HT29; K562; endogenous in cells
- Sequence (P08648 42-894 limits assumed): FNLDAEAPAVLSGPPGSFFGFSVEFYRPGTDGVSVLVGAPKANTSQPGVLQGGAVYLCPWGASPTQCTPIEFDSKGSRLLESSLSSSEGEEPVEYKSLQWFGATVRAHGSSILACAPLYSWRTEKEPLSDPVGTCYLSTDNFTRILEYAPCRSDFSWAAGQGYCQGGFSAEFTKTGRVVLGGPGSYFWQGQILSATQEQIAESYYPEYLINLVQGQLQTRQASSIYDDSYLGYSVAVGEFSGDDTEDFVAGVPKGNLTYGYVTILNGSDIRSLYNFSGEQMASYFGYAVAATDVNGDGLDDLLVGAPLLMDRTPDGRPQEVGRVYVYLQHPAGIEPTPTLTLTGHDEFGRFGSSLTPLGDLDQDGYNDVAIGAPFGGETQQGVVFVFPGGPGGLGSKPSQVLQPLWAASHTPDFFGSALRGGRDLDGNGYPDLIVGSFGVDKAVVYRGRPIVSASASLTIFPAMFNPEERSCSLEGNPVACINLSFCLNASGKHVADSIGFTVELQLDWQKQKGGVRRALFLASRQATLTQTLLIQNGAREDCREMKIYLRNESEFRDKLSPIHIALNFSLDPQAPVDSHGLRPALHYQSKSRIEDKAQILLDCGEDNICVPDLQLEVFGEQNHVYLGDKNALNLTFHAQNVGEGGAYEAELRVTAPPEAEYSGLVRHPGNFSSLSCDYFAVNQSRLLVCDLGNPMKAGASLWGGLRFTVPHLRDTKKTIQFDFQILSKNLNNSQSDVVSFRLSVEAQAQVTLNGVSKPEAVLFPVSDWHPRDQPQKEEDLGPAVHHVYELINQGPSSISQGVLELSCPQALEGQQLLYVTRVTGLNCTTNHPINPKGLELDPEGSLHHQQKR
- Sequence (P08648 895-1049 partner limits assumed): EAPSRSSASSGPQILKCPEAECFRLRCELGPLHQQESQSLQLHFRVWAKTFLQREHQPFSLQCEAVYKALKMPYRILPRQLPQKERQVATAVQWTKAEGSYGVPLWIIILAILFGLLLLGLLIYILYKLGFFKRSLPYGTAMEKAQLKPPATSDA
- Sequence (P05556 21-798): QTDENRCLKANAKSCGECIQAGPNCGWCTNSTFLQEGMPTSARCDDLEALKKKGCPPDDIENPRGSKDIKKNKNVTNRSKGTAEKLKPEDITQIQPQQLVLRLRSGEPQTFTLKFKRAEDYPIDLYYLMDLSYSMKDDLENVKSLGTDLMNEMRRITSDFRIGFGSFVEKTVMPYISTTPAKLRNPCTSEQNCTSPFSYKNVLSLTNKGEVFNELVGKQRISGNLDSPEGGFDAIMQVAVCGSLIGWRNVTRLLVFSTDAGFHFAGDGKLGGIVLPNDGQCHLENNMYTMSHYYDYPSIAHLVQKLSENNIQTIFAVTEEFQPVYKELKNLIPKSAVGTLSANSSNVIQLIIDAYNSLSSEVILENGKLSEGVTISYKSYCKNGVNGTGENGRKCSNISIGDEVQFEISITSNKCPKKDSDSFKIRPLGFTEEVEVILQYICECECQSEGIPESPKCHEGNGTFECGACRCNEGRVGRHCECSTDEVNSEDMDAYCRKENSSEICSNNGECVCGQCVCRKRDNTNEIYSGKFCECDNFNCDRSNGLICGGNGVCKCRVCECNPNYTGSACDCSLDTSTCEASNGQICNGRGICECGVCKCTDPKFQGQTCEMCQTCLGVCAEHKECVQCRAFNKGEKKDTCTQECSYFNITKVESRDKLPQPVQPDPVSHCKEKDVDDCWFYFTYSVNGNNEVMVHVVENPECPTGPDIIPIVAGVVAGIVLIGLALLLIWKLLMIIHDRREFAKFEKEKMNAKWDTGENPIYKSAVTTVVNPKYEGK
- protocol_text: Cell attachment assay, K562
- test_settings: ligand fibronectin, read-out: Cell attachment IC50, α5β1, Fibro-nectin
Counter-ions that a name gives are not always drawn.
# reported IC50; entries follow

>  <molecule>
N=C(N)NCCCOc1ccc2cc(C(=O)NC[C@H](NS(=O)(=O)c3ccccc3)C(=O)O)cc(=O)n2c1 [Compound XV, Hydrochloride]

>  <IC50>
> 10 µM

$$$$
>  <molecule>
Cl.N=C(N)NCc1ccc2cc(C(=O)NC[C@H](NS(=O)(=O)c3ccccc3)C(=O)O)cc(=O)n2c1 [Compound XXVII, Hydrochloride]

>  <IC50>
> 10 µM

$$$$
>  <molecule>
N=C(N)NCC1CCc2cc(C(=O)NCC(NS(=O)(=O)c3ccccc3)C(=O)O)cc(=O)n2C1 (stereo not shown)

>  <IC50>
> 10 µM

$$$$
>  <molecule>
N=C(N)NCCOc1ccc2cc(C(=O)NC[C@H](NS(=O)(=O)c3ccccc3)C(=O)O)cc(=O)n2c1 [Compound XX, Hydrochloride]

>  <IC50>
> 10 µM

$$$$

====

# reported pIC50; entries follow
- subject_of_test: GP IIb-IIIa (αIIbβ3) (Homo sapiens, UniProt P05106+P08514)
- Construct: purchased Calbiochem
- Sequence (P08514 32-887 limits assumed): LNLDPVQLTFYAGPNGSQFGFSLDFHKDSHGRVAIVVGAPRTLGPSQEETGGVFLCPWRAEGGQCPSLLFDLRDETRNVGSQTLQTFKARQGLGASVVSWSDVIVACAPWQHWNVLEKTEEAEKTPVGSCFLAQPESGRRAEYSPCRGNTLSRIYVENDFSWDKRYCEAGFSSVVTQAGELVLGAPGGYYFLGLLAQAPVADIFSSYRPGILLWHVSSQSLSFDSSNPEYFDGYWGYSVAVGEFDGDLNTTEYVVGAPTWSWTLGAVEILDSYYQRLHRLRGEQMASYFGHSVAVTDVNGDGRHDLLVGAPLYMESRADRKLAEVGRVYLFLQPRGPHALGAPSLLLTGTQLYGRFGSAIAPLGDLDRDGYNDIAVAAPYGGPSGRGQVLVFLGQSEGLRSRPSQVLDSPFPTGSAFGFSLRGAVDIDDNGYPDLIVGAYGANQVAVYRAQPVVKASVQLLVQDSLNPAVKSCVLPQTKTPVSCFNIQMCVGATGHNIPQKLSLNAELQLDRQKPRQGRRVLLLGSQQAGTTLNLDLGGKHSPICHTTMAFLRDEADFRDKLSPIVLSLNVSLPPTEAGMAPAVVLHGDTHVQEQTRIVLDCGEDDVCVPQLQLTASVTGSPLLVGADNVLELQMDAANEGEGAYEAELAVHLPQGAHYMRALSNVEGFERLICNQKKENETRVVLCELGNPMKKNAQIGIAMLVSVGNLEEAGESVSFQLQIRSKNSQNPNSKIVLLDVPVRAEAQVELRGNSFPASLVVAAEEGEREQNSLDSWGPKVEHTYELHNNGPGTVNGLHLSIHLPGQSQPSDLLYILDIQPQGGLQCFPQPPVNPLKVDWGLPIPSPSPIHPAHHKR
- Sequence (P08514 891-1039 partner limits assumed): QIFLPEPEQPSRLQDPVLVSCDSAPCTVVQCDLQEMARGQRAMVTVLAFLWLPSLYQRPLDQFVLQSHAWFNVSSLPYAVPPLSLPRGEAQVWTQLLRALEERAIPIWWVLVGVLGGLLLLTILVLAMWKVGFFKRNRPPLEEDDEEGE
- Sequence (P05106 27-788): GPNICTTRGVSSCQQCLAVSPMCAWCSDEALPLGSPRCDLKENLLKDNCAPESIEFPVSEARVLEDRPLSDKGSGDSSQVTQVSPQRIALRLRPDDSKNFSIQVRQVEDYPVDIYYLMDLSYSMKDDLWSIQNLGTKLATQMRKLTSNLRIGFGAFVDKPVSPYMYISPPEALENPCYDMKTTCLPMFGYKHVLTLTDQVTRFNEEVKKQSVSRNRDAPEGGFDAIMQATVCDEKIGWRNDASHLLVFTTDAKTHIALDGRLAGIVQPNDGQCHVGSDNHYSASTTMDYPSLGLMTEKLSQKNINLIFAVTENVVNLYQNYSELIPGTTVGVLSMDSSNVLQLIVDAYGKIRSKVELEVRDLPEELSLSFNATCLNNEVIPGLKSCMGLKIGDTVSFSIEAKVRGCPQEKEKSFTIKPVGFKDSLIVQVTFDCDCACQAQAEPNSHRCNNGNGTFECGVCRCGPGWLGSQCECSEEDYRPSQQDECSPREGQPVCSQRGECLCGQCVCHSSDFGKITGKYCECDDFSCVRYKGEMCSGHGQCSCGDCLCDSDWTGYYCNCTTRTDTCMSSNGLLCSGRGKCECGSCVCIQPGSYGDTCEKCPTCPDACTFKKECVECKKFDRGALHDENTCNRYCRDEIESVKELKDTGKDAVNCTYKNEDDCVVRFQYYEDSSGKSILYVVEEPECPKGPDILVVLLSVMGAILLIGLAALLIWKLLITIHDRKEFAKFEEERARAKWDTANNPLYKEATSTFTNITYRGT
- protocol_text: Fibrinogen binding to immobilized GP IIb-IIIa (αIIbβ3)
- test_settings: biotinylated-fibrinogen 10 nM, immobilized GP IIb-IIIa; read-out: IC50 values for the fibrinogen binding assay αIIbβ3
pIC50: −log10 of the molar value. Structures can show the parent of a compound that is named as a salt.
endpoint: pIC50

>  <molecule>
CN([C@@H](CNC(=O)c1cc(=O)n2cc(OCCCNC(=N)N)ccc2c1)C(=O)O)S(=O)(=O)c1ccccc1 [Compound XXIV, Hydrochloride]

>  <endpoint>
pIC50

>  <observed_measurement>
5.89

$$$$
>  <molecule>
N=C(N)NCCCOc1ccc2cc(C(=O)NCC(Nc3ncccn3)C(=O)O)cc(=O)n2c1 (stereo not drawn) [Compound XXII, Hydrochloride]

>  <endpoint>
pIC50

>  <observed_measurement>
7.35

$$$$
>  <molecule>
N=C(N)NC1CCC(Nc2ccn3c(=O)c(C(=O)NC(CC(=O)O)c4ccccc4)ccc3c2)CC1 (racemic) [Compound XLI, Trifluoroacetic Acid Salt]

>  <endpoint>
pIC50

>  <observed_measurement>
6.64

$$$$
>  <molecule>
CNC(=O)NCCCOc1ccc2cc(C(=O)NC[C@H](NS(=O)(=O)c3ccccc3)C(=O)O)cc(=O)n2c1

>  <endpoint>
pIC50

>  <observed_measurement>
6.10

$$$$
>  <molecule>
CN(CCN(C)c1ccn2c(=O)c(C(=O)NC(CC(=O)O)c3ccccc3)ccc2c1)C(=N)N (racemic) [Compound XXXIX, Trifluoroacetic Acid Salt]

>  <endpoint>
pIC50

>  <observed_measurement>
7.20

$$$$
>  <molecule>
NCCCCOc1ccc2cc(C(=O)NC[C@H](NS(=O)(=O)c3ccccc3)C(=O)O)cc(=O)n2c1 [Compound XVII, Trifluoroacetic Acid Salt]

>  <endpoint>
pIC50

>  <observed_measurement>
9.77

$$$$
>  <molecule>
N=C(N)SCCNc1ccn2c(=O)c(C(=O)NC(CC(=O)O)c3ccccc3)ccc2c1 (racemic) [Compound XXXVII, Trifluoroacetic Acid Salt]

>  <endpoint>
pIC50

>  <observed_measurement>
6.77

$$$$
>  <molecule>
O=C(NCc1ccc2cc(C(=O)NC[C@H](NS(=O)(=O)c3ccccc3)C(=O)O)cc(=O)n2c1)OCc1ccccc1

>  <endpoint>
pIC50

>  <observed_measurement>
6.07

$$$$
>  <molecule>
NCCCOc1ccc2cc(C(=O)NC[C@H](Nc3ncccn3)C(=O)O)cc(=O)n2c1 (stereo in doubt) [Compound XXI, Hydrochloride]

>  <endpoint>
pIC50

>  <observed_measurement>
7.13

$$$$
